Origin of the recorded values: patent US11672775B2

test: Solution stability in vehicle (UPLC area %); type: physicochemical; details: same vehicle; T72 hours
Recorded measurements of Solution stability, T72 hours Purity, one per entry
Enter your answer as a number in % Area; do not include the unit.

MOLECULE: CCCCC[C@H](O)CC[C@@H]1[C@H]2Cc3cccc(OCC(=O)N[C@@H](C)C(=O)O)c3C[C@H]2C[C@H]1O [Prodrug X, treprostinil alanine amide]
OBSERVATION_TYPE: Solution stability, T72 hours Purity
QUANTITATIVE_READOUT: 96.54

Which Solution stability, T72 hours Purity reading was recorded for the molecule CCCCC[C@@H](CC[C@@H]1[C@H]2Cc3cccc(OCC(=O)O)c3C[C@H]2C[C@H]1O)OC(=O)OC [Prodrug IV] ?
99.15

Follow-up entry: CCCCC[C@H](O)CC[C@@H]1[C@H]2Cc3cccc(OCC(=O)NC(CC(=O)O)C(=O)O)c3C[C@H]2C[C@H]1O (stereo partly shown) [Prodrug XII, treprostinil aspartic acid amide]
98.58

Follow-up entry: CCCCC[C@H](O)CC[C@@H]1[C@H]2Cc3cccc(OCC(=O)N[C@@H](CO)C(=O)O)c3C[C@H]2C[C@H]1O [Prodrug XIII, treprostinil serine amide]
97.58

Follow-up entry: CCCCC[C@H](O)CC[C@@H]1[C@H]2Cc3cccc(OCC(=O)NS(C)(=O)=O)c3C[C@H]2C[C@H]1O [Prodrug XIV, treprostinil methanesulfonamide]
94.56

Follow-up entry: CCCCC[C@H](O)CC[C@@H]1[C@H]2Cc3cccc(OCC(=O)NC(C(=O)O)C(C)C)c3C[C@H]2C[C@H]1O (stereo partly shown) [Prodrug XI, treprostinil valine amide]
98.92

Follow-up entry: CCCCC[C@H](O)CC[C@@H]1[C@H]2Cc3cccc(OCC(=O)O)c3C[C@H]2C[C@H]1OC(=O)OC [Prodrug III]
94.61
